These data points were gathered from ChEMBL document CHEMBL1821585.

assay: Selectivity ratio of Ki for CB1 receptor to Ki for CB2 receptor
Result Type: Ratio Ki
Just the number, please, no unit after it.

I would be grateful if you could share the reported Ratio Ki for `CCCOc1c(OC)ccc2cc(C(=O)NCCc3ccc(F)cc3)c(=O)[nH]c12` . 16000

Then what about the compound `CCCCCc1cc2cc(C(=O)OC)c(=O)[nH]c2c(O)c1OC` ? 262000

Then what about the compound `CCCCCOc1c(OC)ccc2cc(C(=O)NCCc3ccncc3)c(=O)[nH]c12` ? 20800

Then what about the compound `Cc1c(C(=O)NN2CCCCC2)nn(-c2ccc(Cl)cc2Cl)c1-c1ccc(Cl)cc1` ? 32

Then what about the compound `CCCCCc1cc2cc(C(=O)NCCc3ccc(F)cc3)c(=O)[nH]c2c(O)c1OC` ? 66600

Then what about the compound CCCCCCC(C)(C)c1cc(OC)c(C2CCCC(C)(O)C2)c(OC)c1 (configuration not stated) ? 220

Then what about the compound `Cc1ccc(Cn2nc(C(=O)N[C@@H]3C(C)(C)[C@@H]4CC[C@@]3(C)C4)cc2-c2ccc(Cl)c(C)c2)cc1` ? 32
